Target: hCA I (Homo sapiens, UniProt P00915)
Construct: gene CA1; recombinant, obtained as reported earlier; cytosolic isoform
Sequence (P00915 2-261): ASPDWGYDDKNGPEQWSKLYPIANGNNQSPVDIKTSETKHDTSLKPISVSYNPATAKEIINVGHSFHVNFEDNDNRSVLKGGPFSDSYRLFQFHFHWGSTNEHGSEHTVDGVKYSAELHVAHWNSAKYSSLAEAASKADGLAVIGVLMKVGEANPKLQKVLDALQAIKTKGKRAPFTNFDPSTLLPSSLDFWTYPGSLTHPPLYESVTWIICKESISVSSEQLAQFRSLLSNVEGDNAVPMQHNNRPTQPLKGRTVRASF
Test: stopped-flow CO2 hydrase assay
Assay type: biochemical
QUANTITY: Ki (nM)

These recorded examples may help you get a feel for the data.
NS(=O)(=O)c1cccc(N=NNc2ccc(Cl)c(Cl)c2)c1 ... 8370
NS(=O)(=O)c1cccc(/N=N/Nc2ccc(F)cc2)c1 ... 365
COc1ccc(/N=N/Nc2cccc(S(N)(=O)=O)c2)cc1 ... 416
CCCCOc1ccc(NN=Nc2cccc(S(N)(=O)=O)c2)cc1 ... 618

(a) N#Cc1ccc(NN=Nc2cccc(S(N)(=O)=O)c2)cc1
(b) NS(=O)(=O)c1cccc(N/N=N/c2ccc(C(=O)O)cc2)c1
(c) Cc1cc(C)cc(NN=Nc2cccc(S(N)(=O)=O)c2)c1
(d) COc1ccc(/N=N/Nc2cccc(S(N)(=O)=O)c2)cc1OC
IN: Could you please sort these 4 entries by Ki from high to low? # the answer lists labels in the order requested
OUT: d, a, c, b

* * *

Target: hCA VII (Homo sapiens)
Construct: gene CA7; recombinant, obtained as reported earlier; cytosolic isoform
Sequence (P43166 whole entry, canonical isoform): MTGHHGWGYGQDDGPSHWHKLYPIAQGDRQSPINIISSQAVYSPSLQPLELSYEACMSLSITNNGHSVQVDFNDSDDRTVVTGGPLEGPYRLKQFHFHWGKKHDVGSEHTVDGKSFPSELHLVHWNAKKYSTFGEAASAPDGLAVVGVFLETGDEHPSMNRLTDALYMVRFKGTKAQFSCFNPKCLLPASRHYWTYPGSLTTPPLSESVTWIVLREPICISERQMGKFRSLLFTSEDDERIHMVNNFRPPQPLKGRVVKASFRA
Test: stopped-flow CO2 hydrase assay
Format: biochemical
From the text: stopped-flow CO2 hydrase assay on hCA VII
QUANTITY: Ki (nM)

# example entries with known answers
COc1ccc(/N=N/Nc2cccc(S(N)(=O)=O)c2)cc1 ... 5760
NS(=O)(=O)c1cccc(N/N=N/c2ccc(C(=O)O)cc2)c1 ... 967
CCCCOc1ccc(NN=Nc2cccc(S(N)(=O)=O)c2)cc1 ... 5870
Cc1cc(C)cc(NN=Nc2cccc(S(N)(=O)=O)c2)c1 ... 15.6
N#Cc1ccc(NN=Nc2cccc(S(N)(=O)=O)c2)cc1 ... 7900
NS(=O)(=O)c1cccc(/N=N/Nc2ccc(F)cc2)c1 ... 9480

(I) COc1ccc(/N=N/Nc2cccc(S(N)(=O)=O)c2)cc1OC
(II) NS(=O)(=O)c1cccc(N=NNc2ccc(Cl)c(Cl)c2)c1
IN: Could you determine which record has the numerically smaller Ki? Candidates: I and II I would appreciate it if you answered with the label of your choice.
OUT: I

* * *

Target: hCA IX (Homo sapiens, UniProt Q16790)
Construct: gene CA9; recombinant, obtained as reported earlier
Assay: stopped-flow CO2 hydrase assay
Assay type: biochemical
QUANTITY: Ki (nM)

COc1ccc(/N=N/Nc2cccc(S(N)(=O)=O)c2)cc1OC [4g] ... 84.9
NS(=O)(=O)c1cccc(N/N=N/c2ccc(C(=O)O)cc2)c1 [4b] ... 835
NS(=O)(=O)c1cccc(/N=N/Nc2ccc(F)cc2)c1 [4a] ... 8050
COc1ccc(/N=N/Nc2cccc(S(N)(=O)=O)c2)cc1 [4e] ... 7230
CCCCOc1ccc(NN=Nc2cccc(S(N)(=O)=O)c2)cc1 [4d] ... 7430

(P) Cc1cc(C)cc(NN=Nc2cccc(S(N)(=O)=O)c2)c1 [4f]
(Q) N#Cc1ccc(NN=Nc2cccc(S(N)(=O)=O)c2)cc1 [4c]
IN: Which record shows the lower Ki: the first, P , or the second, Q ? Reply briefly: the label of your chosen item.
OUT: P
(P: 50.8 nM, Q: 8960 nM)

* * *

Molecular target: hCA II (Homo sapiens, UniProt P00918)
Construct: gene CA2; recombinant, obtained as reported earlier; cytosolic isoform
Assay: stopped-flow CO2 hydrase assay
Assay type: biochemical
Text: stopped-flow CO2 hydrase assay on hCA II
QUANTITY: Ki (nM)

(1) NS(=O)(=O)c1cccc(N=NNc2ccc(Cl)c(Cl)c2)c1
(2) NS(=O)(=O)c1cccc(/N=N/Nc2ccc(F)cc2)c1
(3) Cc1cc(C)cc(NN=Nc2cccc(S(N)(=O)=O)c2)c1
IN: Order the entries by their reported Ki, beginning at the minimum. // respond by listing labels in the order requested
OUT: 3, 2, 1

(a) COc1ccc(/N=N/Nc2cccc(S(N)(=O)=O)c2)cc1OC
(b) N#Cc1ccc(NN=Nc2cccc(S(N)(=O)=O)c2)cc1
(c) COc1ccc(/N=N/Nc2cccc(S(N)(=O)=O)c2)cc1
(d) NS(=O)(=O)c1cccc(N/N=N/c2ccc(C(=O)O)cc2)c1
IN: Arrange the 4 compounds from largest to smallest Ki. Provide your answer as the labels ordered per the instruction.
OUT: a, c, b, d
(a: 6460 nM, c: 877 nM, b: 605 nM, d: 68.7 nM)
